Reported koff values for a set of binders
Molecular target: T1, human ST2L extracellular domain with C-terminal His6 tag (human, UniProt Q01638 19-328)
T1 construct: also called huST2L-ECD; ST2L-ECD
T1 sequence: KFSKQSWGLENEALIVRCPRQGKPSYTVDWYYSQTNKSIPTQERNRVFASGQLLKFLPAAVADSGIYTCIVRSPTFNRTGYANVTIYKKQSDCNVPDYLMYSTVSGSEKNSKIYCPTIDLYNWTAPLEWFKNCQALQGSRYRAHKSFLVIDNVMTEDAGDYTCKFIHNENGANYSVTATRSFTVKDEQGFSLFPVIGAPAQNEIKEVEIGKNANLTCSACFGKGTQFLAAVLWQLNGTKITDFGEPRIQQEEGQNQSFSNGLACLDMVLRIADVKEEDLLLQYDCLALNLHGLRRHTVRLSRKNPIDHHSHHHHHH
Test: ProteOn SPR, mAb captured, ST2L-ECD in solution
Respond with the bare value in s⁻¹.

Solved cases (2 shown):
- Binder: "STLM193 (antibody, V domains shown, C2494 HFA mAb: VH STLH195 + VL STLL274 (O12)) VH: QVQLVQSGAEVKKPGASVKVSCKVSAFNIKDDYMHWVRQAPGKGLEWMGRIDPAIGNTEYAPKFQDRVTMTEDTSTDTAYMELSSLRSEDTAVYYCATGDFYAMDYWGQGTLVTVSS VL: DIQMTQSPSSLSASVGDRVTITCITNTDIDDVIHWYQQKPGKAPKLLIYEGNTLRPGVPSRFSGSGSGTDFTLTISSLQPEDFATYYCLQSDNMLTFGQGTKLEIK"
  Value unit: "s⁻¹"
  koff: 0.0127
- Binder: "STLM200 (antibody, V domains shown, C2494 HFA mAb: VH STLH194 + VL STLL277 (L8)) VH: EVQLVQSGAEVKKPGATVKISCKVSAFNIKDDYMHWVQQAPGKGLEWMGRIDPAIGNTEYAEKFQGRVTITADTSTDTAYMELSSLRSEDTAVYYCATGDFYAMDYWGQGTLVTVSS VL: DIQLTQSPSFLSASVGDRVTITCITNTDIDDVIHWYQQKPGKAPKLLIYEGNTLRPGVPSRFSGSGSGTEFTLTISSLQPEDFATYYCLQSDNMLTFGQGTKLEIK"
  Value unit: "s⁻¹"
  koff: 0.00143

Qu. Please give the measured koff for this binder: STLM194 (antibody, V domains shown, C2494 HFA mAb: VH STLH195 + VL STLL273 (A20)) VH: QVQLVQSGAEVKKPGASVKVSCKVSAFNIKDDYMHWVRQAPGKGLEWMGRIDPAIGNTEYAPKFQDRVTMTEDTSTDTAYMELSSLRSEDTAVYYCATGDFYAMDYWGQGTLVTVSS VL: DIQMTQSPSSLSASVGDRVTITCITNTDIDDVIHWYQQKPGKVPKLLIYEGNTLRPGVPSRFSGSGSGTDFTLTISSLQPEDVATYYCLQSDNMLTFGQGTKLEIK
Ans. 0.0703
